target system: Glutamate receptor ionotropic, AMPA (Rattus norvegicus) (UniProt P19491+P19492+P19493+P19490)
assay explanation: Inhibition of Ionotropic glutamate receptor AMPA in xenopus oocytes expressing the rat cerebral cortex poly(A+) RNA
Type: cell-based
experimental conditions: Oocyte
quantity measured: Kb (nM)
Give bare numbers, in nM.

Solved cases below.
O=Nc1c(O)nc2cc(Cl)cc(Cl)c2c1O    600
O=Nc1c(O)nc2cc(Cl)c(Cl)c(Cl)c2c1O    180
Cc1cc(C)c2c(O)c(N=O)c(O)nc2c1    2600
O=Nc1c(O)nc2cc(Cl)ccc2c1O    740

Kindly review the next molecule as well.
State its Kb for this molecule: O=Nc1c(O)nc2cc(Cl)c(Cl)cc2c1O
410

---

assay explanation: Functional antagonism of NR1a/2C N-methyl-D-aspartate glutamate receptor of rat membrane expressed in Xenopus oocytes
experimental conditions: Oocyte
quantity measured: Kb (nM)
Numbers only, in nM.

O=Nc1c(O)nc2cc(Cl)cc(Cl)c2c1O    47
Cc1cc(C)c2c(O)c(N=O)c(O)nc2c1    170
O=Nc1c(O)nc2cc(Cl)c(Cl)c(Cl)c2c1O    22
Oc1nc2ccc(Cl)cc2nc1O    2600
Oc1nc2cc(Cl)cc(Cl)c2nc1O    730

Please state, for each entry, its recorded Kb.
1. O=Nc1c(O)nc2cc(Cl)ccc2c1O
2. O=Nc1c(O)nc2cc(Cl)c(Cl)cc2c1O
3. Oc1nc2cc(Cl)c(Cl)cc2nc1O [2,3-DIHYDROXY-6,7-DICHLOROQUINOXALINE]
4. Oc1nc2cc(Cl)c(Cl)c(Cl)c2nc1O

86
24
380
82

---

target system: Glutamate receptor ionotropic, NMDA 1 (Rattus norvegicus, UniProt P35439)
assay explanation: Inhibition of [3H]- DCKA binding to NMDA receptor of rat brain membranes
Please provide measured log10 of IC50 for the entries that follow.
Annotation: log10 of IC50, nM basis.

Past entries and their recorded results:
Oc1nc2cc(Cl)c(Cl)c(Cl)c2nc1O    1.48
O=Nc1c(O)nc2cc(Cl)ccc2c1O    1.72
O=Nc1c(O)nc2ccccc2c1O    3.15
O=Nc1c(O)c2cc(F)c(Cl)c(F)c2[nH]c1=O    2.96

// each listed compound needs a value for log10 of IC50
1. Cc1cc(C)c2c(O)c(N=O)c(=O)[nH]c2c1
2. Cc1cc(C)c2nc(O)c(O)nc2c1
3. O=Nc1c(O)c2c(Cl)cc(Cl)cc2[nH]c1=O
4. Oc1nc2cc(Cl)cc(Cl)c2nc1O
5. O=Nc1c(O)nc2cc(Cl)c(Cl)c(Cl)c2c1O
6. O=Nc1c(O)nc2cc(Cl)c(Cl)cc2c1O

[1.57, 3.32, 1.52, 2.45, 0.85, 1.08]

Batch request: log10 of IC50 per item, same order as input.
1. O=Nc1c(O)nc2ccc(Cl)c(Cl)c2c1O
2. Oc1nc2cc(Cl)c(Cl)cc2nc1O [2,3-DIHYDROXY-6,7-DICHLOROQUINOXALINE]

1: 2.23; 2: 2.11

---

Kindly supply the reported Selectivity values for the records listed here.
assay explanation: Steady state Selectivity index for inhibition at NMDA receptor glycine site was estimated by dividing Kb (AMPA) by Kb (NMDA)
Numbers only.

O=Nc1c(O)nc2cc(Cl)cc(Cl)c2c1O    13
O=Nc1c(O)nc2cc(Cl)c(Cl)cc2c1O    17
O=Nc1c(O)nc2cc(Cl)ccc2c1O    8.6

Given Cc1cc(C)c2c(O)c(N=O)c(O)nc2c1 , respond with its Selectivity.
15

---

Hi there, I'd appreciate the recorded pIC50 for every entry that follows.
target system: Glutamate receptor ionotropic, NMDA 1 (Rattus norvegicus)
assay explanation: Inhibition of [3H]- DCKA binding to NMDA receptor of rat brain membranes
Give bare numbers, as −log10 of the molar value.

Example entries and their recorded answers appear below.
Oc1nc2ccc(Cl)cc2nc1O    5.74
Oc1nc2ccccc2nc1O    5.01
O=Nc1c(O)c2cc(Cl)ccc2[nH]c1=O    5.47
Oc1nc2cc(F)c(Cl)c(F)c2nc1O    6.20
O=Nc1c(O)nc2cccc(Cl)c2c1O    5.36

Required: pIC50, one value per molecule below.
1. O=Nc1c(O)c2c(F)c(F)c(F)c(F)c2[nH]c1=O
2. O=c1[nH]c2c(F)c(F)c(F)c(F)c2[nH]c1=O

[5.48, 6.14]
